Reference for the values: patent US20110010780A1

# target_under_test: KCNN3 (Homo sapiens, UniProt Q9UGI6, DUP76-80)
# assay_notes: cellular KCNN3 screening assay (membrane potential dye DiBAC4(3), ionomycin activation) in CHO/KCNN3 cells
# condition_parameters: incubated 30 minutes before ionomycin (1 μM final), fluorescence over 5 minutes
reported_property: pIC50
Give bare numbers, as −log10 of the molar value.

Q) Please report the recorded pIC50 for CN1CCN(CCCN2c3ccccc3Sc3ccc(C(F)(F)F)cc32)CC1 .
A) 4.74
